System: ETA Receptor (Rattus norvegicus)
Construct: endogenous in cells; host or cells: MMQ rat pituitary cells (membranes)
Sequence (P26684 21-426): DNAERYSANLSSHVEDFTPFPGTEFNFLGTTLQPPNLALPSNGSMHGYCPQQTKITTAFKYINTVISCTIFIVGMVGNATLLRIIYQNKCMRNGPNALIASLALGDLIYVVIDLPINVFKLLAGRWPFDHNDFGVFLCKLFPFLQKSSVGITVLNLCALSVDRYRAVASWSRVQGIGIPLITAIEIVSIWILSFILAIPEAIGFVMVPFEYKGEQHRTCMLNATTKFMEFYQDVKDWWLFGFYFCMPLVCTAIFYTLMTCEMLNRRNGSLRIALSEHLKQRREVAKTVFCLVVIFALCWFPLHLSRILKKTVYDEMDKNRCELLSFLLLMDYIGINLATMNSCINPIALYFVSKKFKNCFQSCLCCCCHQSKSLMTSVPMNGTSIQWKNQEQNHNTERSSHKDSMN
Test Summary: [125I]ET-1 binding to membranes from MMQ cells (ETA receptor binding assay, Table 4)
Experimental Parameters: test compound at 1 μM; 0.1 nM [125I]ET-1, MMQ cell membranes, 4 hours at 25° C.; read-out: % Inhibition of ETA at 1 μM
Attribute Measured: inhibition at 1 µM (%)

>>> measured_value("CCCCN(CCCC)C(=O)CN1CC(c2cc(OC)c3c(c2)OCO3)C(C(=O)O)C1CC(C)(C)CCC (stereo not shown)")
100
>>> measured_value("CCCON(CCC)C(=O)CN1CC(c2ccc3c(c2)OCO3)C(C(=O)O)C1c1ccc(OC)cc1 (stereo not shown)")
99.2
>>> measured_value("CCCCN(CCCC)C(=O)CN1CC(c2ccc3c(c2)OCO3)C(C(=O)O)C1CCC1CCCCO1 (stereo not shown)")
95.8
>>> measured_value("CCCC(CCC)N(C(=O)CN1CC(c2cc(OC)c3c(c2)OCO3)C(C(=O)O)C1CCC1OCCO1)c1ccc(F)c(C)c1 (stereo not shown)")
98
>>> measured_value("CCCCN(CCC[N+](C)(C)C)C(=O)CN1CC(c2ccc3c(c2)OCO3)C(C(=O)O)C1c1ccc(OC)cc1 (stereo not shown)")
98.3
>>> measured_value("CCCCN(C(=O)CN1CC(c2ccc3c(c2)OCO3)C(C(=O)O)C1c1ccc(OC)cc1)c1cccnc1 (stereo not shown)")
99.8
>>> measured_value("CCCCN(CCCC)C(=O)CN1C[C@H](c2cc(OC)c3c(c2)OCO3)[C@@H](C(=O)O)[C@@H]1CC(C)(C)CCC")
100

Entry source: patent US7208517B1
